The reported numbers originate from ChEMBL document CHEMBL1201862.

# System: LOX IMVI
# assay.details: NCI tumour cell line growth inhibition, 48 h
Active and inactive are the calls of the source. Cut-off read from the data, not from the text of the source: active = GI50 up to about 1.1 µM and inactive = higher.
measure.name: GI50

Please review the entries below; each comes with its answer.
{"columns": ["molecule", "GI50"],
 "data": [
  ["CS/C(=N/S(=O)(=O)c1ccc(Cl)cc1)NCCCN/C(=N\\S(=O)(=O)c1ccc(Cl)cc1)SC", "14 µM (inactive)"],
  ["O=S(=O)(O)c1c(Cl)c(Cl)c(O)c2ncccc12", "2.19 µM (inactive)"],
  ["Cc1ccc(Nc2nc(-c3ccc(-c4ccc([N+](=O)[O-])cc4)o3)cs2)cc1", "33.8 µM (inactive)"],
  ["Cc1csc2c(=O)n(COCc3ccccc3)c(=O)[nH]c12", "> 100 µM (inactive)"]
]}

// next item, GI50 requested
GI50 of COC(=O)C1(C)C=C(Nc2ccccc2)C(=O)N1c1ccccc1 (stereo not given) on LOX IMVI?
> 100 µM (inactive)

###

Reported GI50 by item:
# Tested on: UACC-257
# assay.details: NCI tumour cell line growth inhibition, 48 h
Active and inactive are the calls of the source. Rule as the data show it: active = GI50 up to about 1.1 µM and inactive = higher.

{"columns": ["compound", "subject.of.test", "GI50"],
 "data": [
  ["COCC1N=C(c2cc(OC)c(OC)c(OC)c2-c2cc3c(cc2C2OCCCO2)OCO3)O[C@H]1c1ccccc1 (stereo not given in full)", "UACC-257", "> 100 µM (inactive)"],
  ["Nc1ncnc2c1ncn2CCCC(c1ccccc1)P(=O)(O)O (stereo not given)", "UACC-257", "> 100 µM (inactive)"],
  ["COc1cccc(C2c3cc4c(cc3OC(O)(CO)C2C(=O)O)OCO4)c1.COc1cccc(C2c3cc4c(cc3OC3(O)COC(=O)C23)OCO4)c1 (stereo not given)", "UACC-257", "41.5 µM (inactive)"],
  ["O=[N+]([O-])c1ccc(-c2ccc(/C=N/n3c(S)nnc3-c3ccc(Cl)cc3)o2)cc1", "UACC-257", "> 57.5 µM (inactive)"]
]}

Param item = O=C(/C=C/c1cccc(Br)c1)c1ccc(Cl)cc1 ; retrieve measured GI50.
17.1 µM (inactive)

###

# Test system: HOP-92
# assay.details: NCI tumour cell line growth inhibition, 48 h
Active and inactive are the calls of the source. No stated cut-off is given here; in the data, active = GI50 up to about 1.1 µM and inactive = higher.
Return exactly one item of label 1 (active), label 0 (inactive)

# example entries with known answers
{"columns": ["compound", "category.label"],
 "data": [
  ["O=C(CSCC(=O)N/N=C\\c1cc(Cl)cc(Cl)c1O)N/N=C\\c1cc(Cl)cc(Cl)c1O", "label 0"],
  ["N#CCc1n[nH]c2nc(SCc3ccccc3)nc(N3CCCCC3)c12", "label 0"],
  ["CCOC(=O)CNC(SC)=C(C#N)C#N", "label 0"],
  ["CC(C)(C)COC(=O)C(C)(C)NC(=O)C(CC(=O)OCc1ccccc1)NC(=O)OCc1ccccc1 (centres undefined)", "label 0"],
  ["O=C(N1CCOCC1)C1(c2ccccc2)CCNCC1", "label 0"],
  ["O=C(O)Cc1cc(F)ccc1C(=O)O", "label 0"]
]}

Any idea what this test logged for COc1c2c(c(CC=C(C)C)c3oc(=O)c(-c4ccc(O)cc4)c(O)c13)OC(C)(C)C=C2 [LONCHOCARPIC ACID] ?
label 0

Any idea what this test logged for N#CC(Cc1ccccc1Br)N(CCC1=CCCCC1)C(c1ccccc1)c1ccccc1 (centres undefined) ?
label 0

Any idea what this test logged for COc1cc2cc(C(=O)N3CC(CCl)c4c3cc(NC(=O)C(C)Nc3c([N+](=O)[O-])cc(C(=O)NCCN(C)C)cc3[N+](=O)[O-])c3ccccc43)[nH]c2c(OC)c1OC (centres undefined) ?
label 1

###

# System: NCI-H460
# assay.details: NCI tumour cell line growth inhibition, 48 h
Active and inactive are the calls of the source. No stated cut-off is given here; in the data, active = GI50 up to about 1.1 µM and inactive = higher.
measure.name: GI50

Please review the entries below; each comes with its answer.
{"columns": ["compound", "value"],
 "data": [
  ["Cc1ccc(Nc2nc3ccccc3nc2NS(=O)(=O)c2ccc(N)cc2)cc1", "4.89 µM (inactive)"],
  ["CC(=O)Nc1ccc(C2[C@H]3C(=O)N(c4ccc(Cc5ccc(N6C(=O)[C@@H]7ON(c8ccccc8)C(c8ccc(NC(C)=O)cc8)[C@@H]7C6=O)cc5)cc4)C(=O)[C@H]3ON2c2ccccc2)cc1 (stereo partly drawn)", "> 100 µM (inactive)"],
  ["CCOC(=O)c1c[nH]c(C(=O)OCC)c1-c1cccn1-c1ccccc1", "23 µM (inactive)"]
]}

Param item = CN(N)/N=N/c1[nH]cnc1C(N)=O ; retrieve measured GI50.
13.2 µM (inactive)

Param item = Cc1cc(N(CCC#N)CCC#N)ccc1/C=C/C(=O)Nc1cccc(Cl)c1 ; retrieve measured GI50.
> 100 µM (inactive)

Param item = CN1C/C(=C\c2cccs2)C2=NN(C)C(c3cccs3)C2C1 (stereo not drawn) ; retrieve measured GI50.
86.5 µM (inactive)

Param item = C[N+](C)(CCNc1ccc(NCC[N+](C)(C)Cc2ccc([N+](=O)[O-])cc2)c2c1C(=O)c1c(O)ccc(O)c1C2=O)Cc1ccc([N+](=O)[O-])cc1 ; retrieve measured GI50.
3.2 µM (inactive)

Param item = CC(C)(C)[Si](C)(C)OCC1OC(n2ccc(N)nc2=O)C(O[Si](C)(C)C(C)(C)C)C1O[Si](C)(C)C(C)(C)C (stereo not drawn) ; retrieve measured GI50.
1.9 µM (inactive)

###

# System: SK-OV-3
# assay.details: NCI tumour cell line growth inhibition, 48 h
Calls of active or inactive are those of the source. Cut-off read from the data, not from the text of the source: active = GI50 up to about 1.1 µM and inactive = higher.
measure.name: GI50

Please review the entries below; each comes with its answer.
{"columns": ["chemical.smiles", "subject.of.test", "GI50"],
 "data": [
  ["[O-]c1c2cc(-[n+]3c(-c4ccccc4)cc(-c4ccccc4)cc3-c3ccccc3)cc1COCCOCCOCCOCCOC2", "SK-OV-3", "57.8 µM (inactive)"],
  ["C[C@H](c1ccccc1)n1c(N)c(-c2nc3ccccc3s2)c2ccc([N+](=O)[O-])cc2c1=O", "SK-OV-3", "8.99 µM (inactive)"],
  ["CN(C)CCNC(=O)c1cccc2ccc(-c3ccc(F)cc3)nc12", "SK-OV-3", "7.62 µM (inactive)"]
]}

Param item = COc1ccc(N2C(=O)/C(=C/c3ccc(N(CCC#N)CCC#N)cc3C)N=C2c2cc([N+](=O)[O-])ccc2Cl)cc1 ; retrieve measured GI50.
4.54 µM (inactive)

###

# Test system: OVCAR-4
# assay.details: NCI tumour cell line growth inhibition, 48 h
Activity calls are given as the source filed them. No stated cut-off is given here; in the data, active = GI50 up to about 1.1 µM and inactive = higher.
measure.name: GI50

{"columns": ["molecule", "subject.of.test", "measure.name", "value"],
 "data": [
  ["ClCC1(CCl)COC1", "OVCAR-4", "GI50", "> 100 µM (inactive)"],
  ["Cc1cc(Br)ccc1NC1=CC(=O)C(=O)c2ccccc21", "OVCAR-4", "GI50", "9.08 µM (inactive)"],
  ["O=C(/N=S(/NC(=O)c1ccccc1)C(Cl)(Cl)Cl)c1ccccc1 (configuration not stated)", "OVCAR-4", "GI50", "17.4 µM (inactive)"]
]}

Param item = S=C1SC(c2ccc(Cl)cc2)(c2ccc(Cl)cc2)c2ccccc21 ; retrieve measured GI50.
> 100 µM (inactive)

Param item = N#C/N=N/c1cc(Cl)c(/N=N/C#N)cc1Cl ; retrieve measured GI50.
47 µM (inactive)

Param item = CCOC(=O)[C@@H]1[C@@H]2NC(=O)N[C@@]1(C)Oc1ccccc12 ; retrieve measured GI50.
> 100 µM (inactive)

Param item = O=C1c2cc(Cl)ccc2-n2cnnc2C2CSCN12 (configuration not stated) ; retrieve measured GI50.
> 100 µM (inactive)

###

# Test system: Malme-3M
# assay.details: NCI tumour cell line growth inhibition, 48 h
Activity calls are given as the source filed them. Rule as the data show it: active = GI50 up to about 1.1 µM and inactive = higher.
Reported GI50 by item:

Please review the entries below; each comes with its answer.
{"columns": ["compound", "value"],
 "data": [
  ["O=C(NNC(=S)NC1CCCCC1)c1csc(NC(=S)NC2CCCCC2)n1", "11.2 µM (inactive)"],
  ["COC(=O)NNC(c1ccc(Cl)cc1)c1ccc(Cl)cc1", "20.6 µM (inactive)"],
  ["O=c1[nH]c(=O)n(C2OC(CO)C(O)C(F)C2O)cc1F (stereo not given)", "> 100 µM (inactive)"],
  ["COC(=O)c1cn(CC(O)CCl)nn1 (stereo not given)", "> 100 µM (inactive)"],
  ["COc1cc2noc(-c3ccccc3)c2cc1OC", "> 100 µM (inactive)"]
]}

Param item = COC(=O)c1cc2c(cc1C(=O)OC)[C@@]1(C)CCCC(C)(C)C1CC2 (stereo not given in full) ; retrieve measured GI50.
1.22 µM (inactive)

Param item = CCOC(=O)C(C(=O)OCC)=c1sc(=C(C(=O)OCC)C(=O)OCC)s1 ; retrieve measured GI50.
> 100 µM (inactive)

Param item = Cc1cc(Br)ccc1NC1=CC(=O)C(=O)c2ccccc21 ; retrieve measured GI50.
24.3 µM (inactive)

Param item = O=C1C[C@@H]2C(COC(=O)c3ccccc3)N(OCc3ccccc3)C[C@@H]2O1 (stereo not given in full) ; retrieve measured GI50.
> 100 µM (inactive)

Param item = COc1cc(/C=C/C(=O)OC[C@]23O[C@H]2[C@@H](OC2OC(C)C(O)C(O)C2O)C2C=CO[C@@H](OC4OC(CO)C(O)C(O)C4O)C23)ccc1O (stereo not given in full) ; retrieve measured GI50.
> 100 µM (inactive)
